Tested on: Vibrio harveyi
Assay: Bactericidal activity (MTT), Vibrio harveyi
Type: cell-based
Conditions: 1 µM; 5 h at 25 °C; read-out: Bactericidal activity (%)
Catalogue of compounds with associated inhibition
Could you give me the number in %? Just the number is fine.

# annotated cases, reported inhibition shown
> print(dat)
                                   compound  quantitative.readout
1  Oc1c(Cl)cc(Cl)cc1Sc1cc(Cl)cc(Cl)c1O [Bithionate sodium, reference compound]                   3.5
2  CC(C)=C[C@@H]1[C@@H](C(=O)O)C1(C)C (relative stereo) [(+)-trans-Chrysanthemic acid]                 -25.4

Give Vibrio harveyi inhibition for C=CCSSCC=C [Garlicin 80%]
28.7

Data origin: paper PMC8401465
